# SYSTEM TESTED: T1, human CD71 extracellular domain (human, UniProt P02786 89-760)
# T1 construct: also called hCD71; human CD71-ECD
# T1 sequence (P02786 89-760): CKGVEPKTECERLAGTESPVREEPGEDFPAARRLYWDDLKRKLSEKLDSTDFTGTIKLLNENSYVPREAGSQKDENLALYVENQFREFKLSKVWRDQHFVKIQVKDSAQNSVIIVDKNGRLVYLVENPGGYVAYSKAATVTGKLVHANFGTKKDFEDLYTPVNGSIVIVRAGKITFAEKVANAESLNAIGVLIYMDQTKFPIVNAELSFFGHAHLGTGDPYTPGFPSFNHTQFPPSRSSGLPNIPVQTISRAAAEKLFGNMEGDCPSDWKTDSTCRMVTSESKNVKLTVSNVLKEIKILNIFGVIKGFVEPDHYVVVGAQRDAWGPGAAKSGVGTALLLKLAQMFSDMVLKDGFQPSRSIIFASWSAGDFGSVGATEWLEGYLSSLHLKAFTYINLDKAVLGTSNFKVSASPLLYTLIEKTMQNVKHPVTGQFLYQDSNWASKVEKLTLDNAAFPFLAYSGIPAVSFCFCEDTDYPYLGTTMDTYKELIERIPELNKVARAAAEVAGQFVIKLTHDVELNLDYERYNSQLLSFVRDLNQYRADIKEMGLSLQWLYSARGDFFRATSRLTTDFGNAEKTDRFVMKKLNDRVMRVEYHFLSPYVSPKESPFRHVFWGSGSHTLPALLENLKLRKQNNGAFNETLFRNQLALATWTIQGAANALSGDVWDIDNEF
# ASSAY INFO: primary ELISA, signal ratio to HSA
OBSERVABLE: hCD71:HSA

[[record]]
binder = "CD71-binding FN3 domain of SEQ ID NO: 157 (designed binder) MSLPAPKNLVVSRVTEDSARLSWTAPDAAFDSFEIGYGEFTYYGEAIVLTVPGSERSYDLTGLKPGTEYWVQIGGVKGGNWSNPLSAIFTT"
observable = "hCD71:HSA"
reported_measurement = 355


1 = CD71-binding FN3 domain of SEQ ID NO: 195 (designed binder) MSLPAPKNLIVSRVTEDSARLSWTAPDAAFDSFEIGYFENLYLGEAIVLTVPGSERSYDLTGLKPGTEYWVQIGGVKGSNWSAPLSAIFTT
2 = CD71-binding FN3 domain of SEQ ID NO: 163 (designed binder) MSLPAPKNLVVSRVTEDSARLSWTAPDAAFDSFFIGYLEPQPPGEVIHLYVPGSERSYDLTGLKPGTEYVVFIGGVKGGVWSVPLSAIFTT
3 = CD71-binding FN3 domain of SEQ ID NO: 148 (designed binder) MSLPAPKNLVVSRVTEDSARLSWTAPDAAFDSFEIVYQENSAYGEAIVLTVPGSERSYDLTGLKPGTEYWVQIGGVKGGEWSAPLSAIFTT
Problem: Thanks in advance: please rank these 3 entries by hCD71:HSA, highest to lowest. The response must list the labels following the requested ordering.
Solution: 3, 1, 2
